- target_desc: feline FcRn (FCN-F82W3, Acrobiosystems) (feline)
- assay_explanation: SPR Carterra, IgG coupled, pH 6.0
Measured Kd, listed per entry for reference.

binder	measured_attribute	measured_result
anti-NGF feline IgG1a, Fc variant T260E, L309E, Q355L (antibody, part only; not given: anti-NGF variable domains, not shown: another chain or arm of the molecule; small tags and cut ends) Fc: PPEMLGGPSIFIFPPKPKDTLSISRTPEVECLVVDLGPDDSDVQITWFVDNTQVYTAKTSPREEQFNSTYRVVSVLPIEHQDWLKGKEFKCKVNSKSLPSPIERTISKAKGQPHEPQVYVLPPALEELSRNKVSVTCLIKSFHPPDIAVEWEITGQPEPENNYRTTPPQLDSDGTYFVYSKLSVDRSHWQRGNTYTCSVSHEALHSHHTQKSLTQSPGK	Kd	9.9 nM
anti-NGF feline IgG1a, Fc variant S434Y, L309V (antibody, part only; not given: anti-NGF variable domains, light chain, not shown: another chain or arm of the molecule; small tags and cut ends) Fc: PPEMLGGPSIFIFPPKPKDTLSISRTPEVTCLVVDLGPDDSDVQITWFVDNTQVYTAKTSPREEQFNSTYRVVSVLPIVHQDWLKGKEFKCKVNSKSLPSPIERTISKAKGQPHEPQVYVLPPAQEELSRNKVSVTCLIKSFHPPDIAVEWEITGQPEPENNYRTTPPQLDSDGTYFVYSKLSVDRSHWQRGNTYTCSVSHEALHYHHTQKSLTQSPGK	Kd	1.8 nM
anti-NGF feline IgG1a, Fc variant S428L, N389c-R (antibody, part only; not given: anti-NGF variable domains, light chain, not shown: another chain or arm of the molecule; small tags and cut ends) Fc: PPEMLGGPSIFIFPPKPKDTLSISRTPEVTCLVVDLGPDDSDVQITWFVDNTQVYTAKTSPREEQFNSTYRVVSVLPILHQDWLKGKEFKCKVNSKSLPSPIERTISKAKGQPHEPQVYVLPPAQEELSRNKVSVTCLIKSFHPPDIAVEWEITGQPEPERNYRTTPPQLDSDGTYFVYSKLSVDRSHWQRGNTYTCSVLHEALHSHHTQKSLTQSPGK	Kd	9.6 nM

// moving on: another record for Kd
Lab note: measured Kd of anti-NGF feline IgG1a, Fc variant S434Y, E293D (antibody, part only; not given: anti-NGF variable domains, light chain, not shown: another chain or arm of the molecule; small tags and cut ends) Fc: PPEMLGGPSIFIFPPKPKDTLSISRTPEVTCLVVDLGPDDSDVQITWFVDNTQVYTAKTSPRDEQFNSTYRVVSVLPILHQDWLKGKEFKCKVNSKSLPSPIERTISKAKGQPHEPQVYVLPPAQEELSRNKVSVTCLIKSFHPPDIAVEWEITGQPEPENNYRTTPPQLDSDGTYFVYSKLSVDRSHWQRGNTYTCSVSHEALHYHHTQKSLTQSPGK was 3.4 nM
